- Tested on: SNB-19 CNS
- Test name: NCI tumour cell line growth inhibition, 48 h
Measured attribute: TGI

{"columns": ["Given smiles", "Reported measurement"],
 "data": [
  ["N#CCc1ncc(-c2ccc(C(F)(F)F)cc2)c(NC2CCCCCC2)n1", "> 10 µM"]
]}

TGI reported for this compound `O=C(OCc1ccccc1)C1(N2CN(C3(C(=O)OCc4ccccc4)CCCC3)CN(C3(C(=O)OCc4ccccc4)CCCC3)C2)CCCC1` : > 10 µM

`COc1ccc(-n2c3c(c4c(CN5CCOCC5)c(O)ccc42)CCc2ccccc2C3=O)cc1` has a reported TGI of > 100 µM

Lab note: `O=c1[nH]c(=O)n(Cc2ccccc2CO)cc1Sc1ccccc1` gave TGI of > 100 µM

GET /value?item= `NC(=S)Nc1[nH]c(=S)nc2c1SC1=N/C(=C\c3ccco3)C(=O)N12` &field=TGI returns > 100 µM

Sure, the documented TGI for `O=[Se](=O)c1ccccc1.O=[Se](=O)c1ccccc1.[Cu]` is 31.3 µM

TGI reading for `[N-]=[N+]=CC(=O)OCC1SCCCS1` : > 100 µM
